TARGET_DESC: T1, human immunoglobulin E (hIgE) (human, UniProt P01854-1 1-428)
T1 construct: also called human IgE; Native IgE (Abcam)
TEST_NAME: SPR (Biacore), pH 7.4
MEASURED_METRIC: kon (M⁻¹ s⁻¹)
Field format: number, assumed M⁻¹ s⁻¹, no unit text.

Returns the measured kon for the input binder. Input: OmaVH15G55HW100b - VL3S31H (antibody, V domains shown) VH: EVQLVESGGGLVQPGGSLRLSCAVSGYSITSGHRWEWIRQAPGKGLEWVASIHYDHSTNYNPSVKGRITISRDDSKNTFYLQMNSLRAEDTAVYYCARATHYFGHHHFAVWGQGTLVTVSS VL: DIQLTQSPSSLSASVGDRVTITCRASQSVDYDGDHYMNWYQQKPGKAPKLLIEWGSYLRSGVPSRFSGSGSGTDFTLTISSLQPEDFATYYCQQNAEDPYTFGQGTKVEIK 253000

OmaVH15G55H - VL3D28H (antibody, V domains shown, also called OmaVH15G55H VL3D25H) VH: EVQLVESGGGLVQPGGSLRLSCAVSGYSITSGHRWEWIRQAPGKGLEWVASIHYDHSTNYNPSVKGRITISRDDSKNTFYLQMNSLRAEDTAVYYCARATHYFGHWHFAVWGQGTLVTVSS VL: DIQLTQSPSSLSASVGDRVTITCRASQSVDYHGDSYMNWYQQKPGKAPKLLIEWGSYLRSGVPSRFSGSGSGTDFTLTISSLQPEDFATYYCQQNAEDPYTFGQGTKVEIK ? 283000

OMA VH15 - VL3D28HS31H (antibody, V domains shown) VH: EVQLVESGGGLVQPGGSLRLSCAVSGYSITSGHRWEWIRQAPGKGLEWVASIHYDGSTNYNPSVKGRITISRDDSKNTFYLQMNSLRAEDTAVYYCARATHYFGHWHFAVWGQGTLVTVSS VL: DIQLTQSPSSLSASVGDRVTITCRASQSVDYHGDHYMNWYQQKPGKAPKLLIEWGSYLRSGVPSRFSGSGSGTDFTLTISSLQPEDFATYYCQQNAEDPYTFGQGTKVEIK ? 302000

OmaVH15G55HW100b - VL3 (antibody, V domains shown) VH: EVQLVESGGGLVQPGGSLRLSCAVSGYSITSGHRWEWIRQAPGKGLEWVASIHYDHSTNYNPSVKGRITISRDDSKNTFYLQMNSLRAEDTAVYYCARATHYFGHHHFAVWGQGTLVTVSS VL: DIQLTQSPSSLSASVGDRVTITCRASQSVDYDGDSYMNWYQQKPGKAPKLLIEWGSYLRSGVPSRFSGSGSGTDFTLTISSLQPEDFATYYCQQNAEDPYTFGQGTKVEIK ? 261000

Oma VH15W100b - VL3D28HS31H (antibody, V domains shown) VH: EVQLVESGGGLVQPGGSLRLSCAVSGYSITSGHRWEWIRQAPGKGLEWVASIHYDGSTNYNPSVKGRITISRDDSKNTFYLQMNSLRAEDTAVYYCARATHYFGHHHFAVWGQGTLVTVSS VL: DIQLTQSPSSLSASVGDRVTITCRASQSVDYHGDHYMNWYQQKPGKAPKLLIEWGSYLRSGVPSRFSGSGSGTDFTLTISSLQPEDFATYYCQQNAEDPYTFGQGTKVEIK ? 290000

OmaVH15G55H - VL3D28HS31H (antibody, V domains shown) VH: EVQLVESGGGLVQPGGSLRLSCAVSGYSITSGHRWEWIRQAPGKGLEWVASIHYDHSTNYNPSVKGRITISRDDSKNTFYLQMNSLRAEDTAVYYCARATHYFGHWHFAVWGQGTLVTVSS VL: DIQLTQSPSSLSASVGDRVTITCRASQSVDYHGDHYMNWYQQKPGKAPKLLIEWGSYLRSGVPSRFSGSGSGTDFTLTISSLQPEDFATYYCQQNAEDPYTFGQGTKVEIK ? 286000

OmaVH15G55HW100b - VL3D28H (antibody, V domains shown, also called OmaVH15G55HW100b VL3D25H) VH: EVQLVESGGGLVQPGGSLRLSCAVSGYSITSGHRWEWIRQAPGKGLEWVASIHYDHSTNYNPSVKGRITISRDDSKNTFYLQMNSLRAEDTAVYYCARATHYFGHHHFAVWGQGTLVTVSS VL: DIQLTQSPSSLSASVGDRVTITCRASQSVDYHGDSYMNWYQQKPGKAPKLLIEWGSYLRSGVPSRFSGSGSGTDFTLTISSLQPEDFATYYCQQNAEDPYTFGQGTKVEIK ? 200000

OmaVH15G55H - VL3S31H (antibody, V domains shown) VH: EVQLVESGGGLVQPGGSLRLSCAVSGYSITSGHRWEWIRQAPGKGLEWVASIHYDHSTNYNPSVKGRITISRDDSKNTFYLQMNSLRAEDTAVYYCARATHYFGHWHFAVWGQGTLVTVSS VL: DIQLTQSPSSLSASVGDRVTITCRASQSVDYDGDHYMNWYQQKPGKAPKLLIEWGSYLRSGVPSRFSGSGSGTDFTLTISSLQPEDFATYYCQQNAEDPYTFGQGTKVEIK ? 301000

OmaVH15G55H - VL3 (antibody, V domains shown) VH: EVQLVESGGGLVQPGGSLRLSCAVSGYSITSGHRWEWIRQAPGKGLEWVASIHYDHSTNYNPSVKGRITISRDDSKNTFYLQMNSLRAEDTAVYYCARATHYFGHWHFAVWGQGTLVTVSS VL: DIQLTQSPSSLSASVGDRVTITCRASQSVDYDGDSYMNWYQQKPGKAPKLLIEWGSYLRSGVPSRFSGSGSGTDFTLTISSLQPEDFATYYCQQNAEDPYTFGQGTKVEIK ? 323000

OMA VH15 - VL3 (antibody, V domains shown) VH: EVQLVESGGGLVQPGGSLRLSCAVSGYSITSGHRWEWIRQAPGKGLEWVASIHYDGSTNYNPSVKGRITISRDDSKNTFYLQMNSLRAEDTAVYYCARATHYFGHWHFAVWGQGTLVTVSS VL: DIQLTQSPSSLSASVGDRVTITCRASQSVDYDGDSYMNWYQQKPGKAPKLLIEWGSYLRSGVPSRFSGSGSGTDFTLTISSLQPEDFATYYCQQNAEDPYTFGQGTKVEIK ? 130000

OMA VH15 - VL3S31H (antibody, V domains shown) VH: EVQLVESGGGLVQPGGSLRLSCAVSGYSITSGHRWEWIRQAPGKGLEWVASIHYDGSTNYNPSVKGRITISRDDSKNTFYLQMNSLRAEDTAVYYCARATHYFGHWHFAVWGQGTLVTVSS VL: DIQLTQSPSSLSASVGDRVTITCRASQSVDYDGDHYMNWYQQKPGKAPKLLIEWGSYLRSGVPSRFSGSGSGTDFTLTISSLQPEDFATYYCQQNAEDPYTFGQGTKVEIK ? 310000
